Would you mind telling me the reported melting point of each entry?

State its melting point: O=C(O)[C@H](CCc1ccccc1)NS(=O)(=O)c1ccc2c(c1)Cc1ccccc1-2
128 to 131 °C

Identify melting point associated with the compound Clc1ccc(N2CCN(CCc3ccccc3)CC2)nn1
140 °C

Determine its reported melting point: NC(=O)CNC(=O)c1cc(-c2cccc3cc(Cc4cc(F)cc(Cl)c4)sc23)ccc1F
129 to 130 °C

Dear colleague, please send me the reported melting point for CC(=O)C1=C(O)C(C(=O)C=Cc2ccc(O)cc2)C(=O)OC1=O (stereo not given) when you can.
194 to 196 °C

// Input: CNC(=O)/C=C1\CCc2c(Cl)cc(F)cc21 . Output its melting point only.
173 to 175 °C

Give me measured melting point, please, for this compound: CCCCNc1cc(CNc2ccccc2)cc(S(N)(=O)=O)c1Oc1ccccc1
142 to 143 °C

Quickly give me recorded melting point for O=C(O)c1cn(Cc2ccc(Oc3ccccc3)cc2)nc1OCc1ccc(Oc2ccccc2)cc1
141 to 142 °C

Please report the measured melting point for N#Cc1cnn(-c2ccccn2)c1SCc1ccccc1
110 to 115 °C

Respond only with melting point recorded for CC(C)(C)C(=O)c1[nH]c2cc(Cl)ccc2c1N
132 to 134 °C

# return recorded melting point for entry CCCCCCCNC(=O)Nc1ccc(O)cc1C(=O)NCCC(c1ccccc1)c1ccccc1
161 to 162 °C
